B1: Hairpin Ribozyme (parent)
chain: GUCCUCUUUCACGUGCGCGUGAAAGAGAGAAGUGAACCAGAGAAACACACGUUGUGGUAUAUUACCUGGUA

Variants of: B1
procedure-text: self-cleavage, relative activity (ratio to wild type); higher = more cleavage; co-transcriptional
Mark false (0) for self-cleavage values under 0.2, and true (1) for everything at or above.

Solved entries:
mutation-list	assigned-category
G42U U53A	true (1)
A35G G54U	true (1)
A11C U14G	true (1)
A24G A28U	true (1)
A59G G68U	true (1)
U2C A71G	false (0)
G56U A61C	false (0)
G17A U55G	false (0)
G1A G40U	false (0)
G19U G27A	true (1)

Enquiry: Item A47U G57A with self-cleavage of 0.2 or above?
Return: true (1)

Enquiry: Record A49C A64C ; criterion: self-cleavage no lower than 0.2. Met?
Return: false (0)

Enquiry: # check: self-cleavage of A35G U52C is greater than or equal to 0.2
Return: true (1)

Enquiry: Quick check, self-cleavage >= 0.2? U33C U52C
Return: false (0)
